Sourced from ChEMBL document CHEMBL1128514

Biological target: DNA topoisomerase II (Homo sapiens, UniProt P11388+Q02880)
Experiment: In vitro 50% inhibition of topoisomerase II mediated k-DNA decatenation
Assay type: protein assay
readout-name: IC50 (µM)

P: CNC(=O)OCc1ccc(Sc2c3ccccc3nc3ccccc23)cc1
Q: COc1ccc2c(Sc3ccc(CO)cc3)c3ccccc3nc2c1
Q: Please indicate which has the smaller reported IC50: P , or Q . In your reply, give the label of the chosen option.
A: P

###

Test system: CEM-VLB
Experiment: The compound was tested for the cytotoxicity against human leukemic CEM/VBL cell lines
Format: functional, cell-based
readout-name: pIC50
Remember the convention: pIC50 equals -log10 of concentration in molar.

Q: Enter measured pIC50, system CEM-VLB, for the compound shown: Nc1cc(CO)cc(Nc2c3ccccc3nc3ccccc23)c1
A: 5.42

###

Target: DNA topoisomerase II (Homo sapiens, UniProt P11388+Q02880)
Assay: In vitro 50% inhibition of topoisomerase II mediated k-DNA decatenation
Type: protein assay
readout-name: IC50 (µM)

CNC(=O)OCc1ccc(Oc2c3ccccc3nc3ccccc23)cc1; 20

1: CNC(=O)OCc1ccc(Oc2c3ccccc3nc3cc(OC)ccc23)cc1
2: O=C(O)CCC(=O)Nc1cc(CO)cc(Nc2c3ccccc3nc3ccccc23)c1
3: Nc1cc(CO)cc(Nc2c3ccccc3nc3ccccc23)c1
Q: // sort entries: IC50, high to low Write the labels in rank order as requested.
A: 1, 2, 3
(1: 50 µM, 2: 20 µM, 3: 1 µM)

1: CC(C)NC(=O)OCc1ccc(Sc2c3ccccc3nc3ccccc23)cc1
2: COc1ccc2c(Oc3ccc(CO)cc3)c3ccccc3nc2c1
Q: Of the two listed items, 1 and 2 , which carries the larger IC50 figure? In your reply, give the label of the chosen option.
A: 1
(1: 50 µM, 2: 20 µM)

###

Test system: L1210
Experiment: The compound was tested for the cytotoxicity against L1210 cell lines
Assay type: functional, cell-based
Conditions: Mus musculus
# IC50 values compiled below
Provide only the numeric value, understood in nM.

Observe how each entry below is paired with its result.
Nc1cc(CO)cc(Nc2c3ccccc3nc3ccccc23)c1; 16
O=C(O)CCC(=O)Nc1cc(COC(=O)CCC(=O)O)cc(Nc2c3ccccc3nc3ccccc23)c1; 990
CC(=O)Nc1cc(CO)cc(Nc2c3ccccc3nc3ccccc23)c1; 28
O=C(O)CCC(=O)Nc1cc(CO)cc(Nc2c3ccccc3nc3ccccc23)c1; 330
CC(=O)OCc1cc(N)cc(Nc2c3ccccc3nc3ccccc23)c1; 34
CC(=O)CCC(=O)Nc1cc(COC(=O)CCC(C)=O)cc(Nc2c3ccccc3nc3ccccc23)c1; 98

Q: Enter measured IC50, system L1210, for the molecule shown: CC(=O)CCC(=O)Nc1cc(CO)cc(Nc2c3ccccc3nc3ccccc23)c1
A: 45

###

Test system: CCRF S-180
Test: The compound was tested for the cytotoxicity against S180 cell lines
Type: functional, cell-based
Conditions: Mus musculus
# IC50 values compiled below
Provide only the numeric value, understood in nM.

Observe how each entry below is paired with its result.
O=C(O)CCC(=O)Nc1cc(CO)cc(Nc2c3ccccc3nc3ccccc23)c1; 1070
CC(=O)CCC(=O)Nc1cc(COC(=O)CCC(C)=O)cc(Nc2c3ccccc3nc3ccccc23)c1; 97

Q: Write down IC50 measured for item CC(=O)CCC(=O)Nc1cc(CO)cc(Nc2c3ccccc3nc3ccccc23)c1
A: 70

Q: Write down IC50 measured for item Nc1cc(CO)cc(Nc2c3ccccc3nc3ccccc23)c1
A: 30

Q: Write down IC50 measured for item O=C(O)CCC(=O)Nc1cc(COC(=O)CCC(=O)O)cc(Nc2c3ccccc3nc3ccccc23)c1
A: 1830

###

System: DC3F/AD-II
Test: The compound was tested for the cytotoxicity against human leukemic DC-3F/ADII cell lines, activity is expressed as IC50 values.
Type: functional, cell-based
Settings: Cricetulus griseus
readout-name: IC50 (nM)
Provide only the numeric value, understood in nM.

Q: Write down IC50 measured for item Nc1cc(CO)cc(Nc2c3ccccc3nc3ccccc23)c1
A: 54

###

# IC50 values compiled below
Biological target: DNA topoisomerase II (Homo sapiens, UniProt P11388+Q02880)
Experiment: In vitro 50% inhibition of topoisomerase II mediated k-DNA decatenation
Type: protein assay

Observe how each entry below is paired with its result.
CC(=O)CCC(=O)Nc1cc(COC(=O)CCC(C)=O)cc(Nc2c3ccccc3nc3ccccc23)c1; < 1000 nM
COc1ccc2c(Sc3ccc(COC(=O)NC(C)C)cc3)c3ccccc3nc2c1; > 100000 nM

Now look at this entry.
Q: Enter measured IC50, system DNA topoisomerase II (Homo sapiens, UniProt P11388+Q02880), for the compound shown: CC(=O)CCC(=O)Nc1cc(CO)cc(Nc2c3ccccc3nc3ccccc23)c1
A: < 1000 nM

###

Target: DNA topoisomerase II (Homo sapiens, UniProt P11388+Q02880)
Assay: In vitro 50% inhibition of topoisomerase II mediated k-DNA decatenation
Format: protein assay
readout-name: IC50

OCc1ccc(Oc2c3ccccc3nc3ccccc23)cc1; > 100 µM

Q: Write down IC50 measured for item CC(C)NC(=O)OCc1ccc(Oc2c3ccccc3nc3ccccc23)cc1
A: 20 µM

Q: Write down IC50 measured for item CNC(=O)OCc1ccc(Sc2c3ccccc3nc3cc(OC)ccc23)cc1
A: > 100 µM

Q: Write down IC50 measured for item OCc1ccc(Sc2c3ccccc3nc3ccccc23)cc1
A: > 100 µM

Q: Write down IC50 measured for item COc1ccc2c(Oc3ccc(COC(=O)NC(C)C)cc3)c3ccccc3nc2c1
A: > 100 µM

Q: Write down IC50 measured for item O=C(O)CCC(=O)Nc1cc(COC(=O)CCC(=O)O)cc(Nc2c3ccccc3nc3ccccc23)c1
A: > 100 µM
